Every entry's value here was drawn from patent US8790902B2.

- Test system: AcR: ZM4 acetate tolerant mutant
- Type: cell-based, Zymomonas mobilis
- condition-notes: AcR; RM pH 5.0 supplemented with 195 mM of the chemical, anaerobic
Measured Growth rate of individual entries

| molecule | test-system | Growth rate (h⁻¹) |
| --- | --- | --- |
| CC(=O)[O-].[K+] [Kac, potassium acetate] | AcR: ZM4 acetate tolerant mutant | 0.12 |
| CC(=O)[O-].[Na+] [NaAc, sodium acetate] | AcR: ZM4 acetate tolerant mutant | 0.29 |
| CC(=O)O.N [NH4OAc, ammonium acetate] | AcR: ZM4 acetate tolerant mutant | 0.19 |
| [Cl-].[Na+] [NaCl, sodium chloride] | AcR: ZM4 acetate tolerant mutant | 0.29 |
